B1: GAGE1 (parent)
chain: QPPEMIGPMRPEQFSDEVEPATPE

- Variants of: B1
- assay-comment: protein stability index of a GFP-peptide fusion (GPS, HEK-293T) (PSI 1-6); higher = more stable;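 further: lentivirally expressed fusions sorted by FACS into six bins by GFP to DsRed ratio, PSI derived from sequencing read proportions per bin multiplied by bin number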
- recorded-conditions: c terminus: a fixed tail appended
readout-type: protein stability index
Keep it simple and answer with nothing but the number.

*Q* Determine its reported protein stability index: A21F
*A* 5.05

*Q* For the variant M9H , give its measured protein stability index value.
*A* 5.9

*Q* # return recorded protein stability index for input E12D
*A* 4.57

*Q* Give the reported value of protein stability index for this record: V18R
*A* 4.85

*Q* Recall and state the measured protein stability index for V18C .
*A* 4.78

*Q* Return value of protein stability index for input P8T , no commentary.
*A* 5.62

*Q* Give protein stability index for E17S
*A* 5.44

*Q* Specify protein stability index for Q13D and stop.
*A* 4.11

*Q* Answer with the recorded protein stability index for the variant listed here: P8G
*A* 5.45

*Q* State its protein stability index for this variant: P20G
*A* 5.36

*Q* Identify measured protein stability index corresponding to G7Y
*A* 5.76

*Q* Supply recorded protein stability index for E17L here.
*A* 5.04

*Q* Supply recorded protein stability index for E12S here.
*A* 5.5

*Q* Identify measured protein stability index associated with V18P
*A* 4.85

*Q* Input P8C , output reported protein stability index.
*A* 5.48

*Q* Please give measured protein stability index of the following entry: E12N
*A* 5.46

*Q* Given the variant A21C , write its reported protein stability index.
*A* 4.59

*Q* For the variant R10Y , give its measured protein stability index value.
*A* 5.24

*Q* Quick one: give measured protein stability index for M5G
*A* 5.45

*Q* Answer with the recorded protein stability index of E24Y only.
*A* 4.57

*Q* Write down protein stability index measured for item Q1T
*A* 4.94

*Q* Report protein stability index for P20Y
*A* 5.13
